From: patent US12655142B2

Target: c-Kit(V654A) (Homo sapiens, UniProt P10721, V654A)
Construct: recombinant human c-Kit, amino acids 544-end containing the V654A mutation; GST (N)
Sequence (P10721 544-976 V654A): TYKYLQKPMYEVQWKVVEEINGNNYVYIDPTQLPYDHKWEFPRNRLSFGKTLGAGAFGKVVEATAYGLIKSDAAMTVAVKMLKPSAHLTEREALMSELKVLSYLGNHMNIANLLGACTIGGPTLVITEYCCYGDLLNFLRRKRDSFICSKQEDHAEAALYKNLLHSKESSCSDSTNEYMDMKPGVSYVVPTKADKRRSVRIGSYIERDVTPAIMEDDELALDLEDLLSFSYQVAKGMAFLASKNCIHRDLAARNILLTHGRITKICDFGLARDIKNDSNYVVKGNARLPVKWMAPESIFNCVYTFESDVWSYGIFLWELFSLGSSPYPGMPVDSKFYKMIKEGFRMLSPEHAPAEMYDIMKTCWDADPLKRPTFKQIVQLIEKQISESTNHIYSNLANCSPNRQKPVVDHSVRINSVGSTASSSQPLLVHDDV
Assay: c-Kit(V654A) assay (33P-ATP filter binding kinase assay)
Conditions: recombinant human c-Kit aa 544-end V654A, ATP 200 μM
The entries below are paired with their reported log10 IC50.
Field: value | Transform: log10 | Quantity: IC50 | Unit: nM

Sample answers from the record:
Cn1ncc(-c2ccc(CNc3cc(-c4cnc5cc(OCCCS(C)(=O)=O)ccn45)ncn3)cc2)n1 = 1.18
Cn1cc(-c2ccc(CNc3cc(-c4cnc5cc(OCCCN6CC7(COC7)C6)ccn45)ncn3)cc2)cn1 = 0.81
Cn1ncc(-c2ccc(CNc3cc(-c4cnc5cc(OCCN6CCCC6)ccn45)ncn3)cc2)n1 = 0.60
CC(Nc1cc(-c2cnc3cc(OCCCN4CCC4)ccn23)ncn1)c1ccc(-c2cnn(C)c2)cc1 (centres unmarked) = 1.94
Cn1ncc(-c2ccc(CNc3cc(-c4cnc5cc(OCCO)ccn45)ncn3)cc2)n1 = 0.57
CN1CCN(CCOc2ccn3c(-c4cc(NCc5ccc(-c6cnn(C)c6)cc5)ncn4)cnc3c2)C(=O)C1 = 1.18
Cn1cc(-c2ccc(CNc3cc(-c4cnc5cc(N6CCC(CCO)C6)ccn45)ncn3)cc2)cn1 (centres unmarked) = 1.28
Cn1cc(-c2ccc(CNc3cc(-c4cnc5cc(OCCCNC6COC6)ccn45)ncn3)cc2)cn1 = 0.71

Reported log10 IC50 for CN1CCC(CCOc2ccn3c(-c4cc(NCc5ccc(-c6cnn(C)n6)cc5)ncn4)cnc3c2)C1 (centres unmarked) was 0.20

Reported log10 IC50 for "Cn1cc(-c2ccc(CNc3cc(-c4cnc5cc(N6CC7(COC7)C6)ccn45)ncn3)cc2)cn1" was 0.90

Reported log10 IC50 for "COc1ccn2c(-c3cc(NCc4ccc(-c5cn(C)nc5N)cc4)ncn3)cnc2c1" was 1.85

Reported log10 IC50 for "COc1ccn2c(-c3cc(NCc4ccc(C(=O)N(C)C)cc4)ncn3)cnc2c1" was 2.00

Reported log10 IC50 for "COc1ccn2c(-c3cc(NCc4ccc(-c5cnn(C)c5)c(F)c4)ncn3)cnc2c1" was 1.18

Reported log10 IC50 for "Cn1cc(-c2ccc(CNc3cc(-c4cnc5cc(OCCN6CC[S+]([O-])CC6)ccn45)ncn3)cc2)cn1" was 0.79

Reported log10 IC50 for "CN(CCOc1ccn2c(-c3cc(NCc4ccc(-c5cnn(C)c5)cc4)ncn3)cnc2c1)CC(F)(F)F" was 1.58

Reported log10 IC50 for "Cn1cc(-c2ccc(CNc3cc(-c4cnc5cc(OCCN6CCC(F)(F)CC6)ccn45)ncn3)cc2)cn1" was 1.23

Reported log10 IC50 for "Cn1cc(-c2ccc(CNc3cc(-c4cnc5cc(OCc6nccn6C)ccn45)ncn3)cc2)cn1" was 1.15
